Settings: 20.0 µM
experimental-readout: relative solubility at 20 uM
One number for each entry.

Answered examples (6):
INSERT INTO results (molecule, value_observed) VALUES
  ('Cc1cccc(NC(=O)C(C#N)C(=O)C2CCC2)c1 (configuration not stated)', 0.99),
  ('CC(=O)Nc1ccc(NCC(=O)Nc2cnccc2C)cc1', 0.96),
  ('CC1CN(Cc2ccccc2NC(=O)NCc2cnsc2)CC(C)O1 (configuration not stated)', 1),
  ('C=CC(=O)N(c1ccc(N(C)C)c(C)c1)C(C(=O)Nc1cccc(CC)c1)c1cccnc1 (configuration not stated)', 0.85),
  ('C[C@H](NC(=O)[C@@H](C)c1ccc(F)c(F)c1)c1cccc(F)c1 (stereo in doubt)', 1),
  ('C=CC(=O)N(c1ccc(C(C)(C)CC)cc1)C(C(=O)Nc1cccc(F)c1C)c1cccnc1 (configuration not stated)', 0.86);

Okay, here is my list. What is relative solubility at 20 uM for each of these?
1. CCN1CCN(Cc2ccccc2CNC(=O)[C@@]2(C)CCN2C(=O)OC(C)(C)C)CC1 (stereo in doubt)
2. O=C(NCCN1CCN(c2ccccc2)CC1)NCc1ccccn1
3. CN(C)c1ncccc1N(C)C(=O)C1CCOc2ccc(Cl)cc21 (configuration not stated)
4. O=C(Cc1c[nH]c2ncccc12)NCc1cccc(Cl)c1

[1, 0.99, 1, 1]

Okay, here is my list. What is relative solubility at 20 uM for each of these?
1. Cc1ccncc1NC(=O)Cc1cccc(S(N)(=O)=O)c1
2. CC1CCCC(OCc2cccc(NC(=O)NC(C)c3ccn[nH]3)c2)C1 (configuration not stated)
3. O=C(O)[C@@H](Cc1nc(=O)cc[nH]1)NCc1ccc(Cl)s1 (stereo in doubt)
4. O=C(Cc1cccc(Cl)c1)Nn1cnc2ccccc2c1=O

1: 0.99; 2: 1; 3: 1.01; 4: 1

---

Give inhibition for every item shown.
Biological target: SARS-CoV-2 Main Protease (SARS-CoV-2) (UniProt P0DTD1)
Conditions: 20.0 µM
One number for each entry, in %.

INSERT INTO results (molecule, units_label, value_observed) VALUES
  ('Cc1noc(C)c1CS(=O)(=O)Cc1cccc(Cl)c1', '%', 1.07);

Okay, here is my list. What is inhibition for each of these?
1. CCN(CC1COc2ccccc2O1)C(=O)c1cc(=O)[nH]c2ccc([N+](=O)[O-])cc12 (centres undefined)
2. CCC(NC(=O)C(C)n1cncn1)c1ccccc1OCC(=O)N1CCCC1 (centres undefined)
3. O=C(OCC(O)CO)c1ccccc1Nc1ccnc2cc(Cl)ccc12 (centres undefined)
4. COC(=O)C(c1ccccc1Cl)N1CCC2SC(=O)C=C2C1 (centres undefined)

1. 2.87
2. -0.907
3. 3.82
4. -46.2

---

Give relative solubility at 100 uM for every item shown.
Conditions: 100.0 µM
Give bare numbers.

Answered examples (4):
INSERT INTO assay_data (compound, experimental_readout, value_observed) VALUES
  ('Cc1cccc(NC(=O)C(C#N)C(=O)C2CC2)c1 (centres undefined)', 'relative solubility at 100 uM', 0.99),
  ('Cc1cccc(C)c1OCC(=O)NCCc1ccccc1', 'relative solubility at 100 uM', 0.98),
  ('COc1ccccc1OCCN(C)C(=O)c1cc(=O)[nH]c2cc(F)ccc12', 'relative solubility at 100 uM', 1),
  ('N#Cc1ccc(CNC(=O)Cc2c[nH]c3ncccc23)nc1', 'relative solubility at 100 uM', 1);

Okay, here is my list. What is relative solubility at 100 uM for each of these?
1. C=CC(=O)N(c1ccc(C(C)(C)C)cc1)C(C(=O)NC1CCOCC1)c1cccnc1 (centres undefined)
2. C=CC(=O)N(c1ccc(C(C)(C)C)cc1)C(C(=O)NC1CCCCC1)c1cccnc1 (centres undefined)
3. O=C(Cc1c[nH]c2ncccc12)NCc1cccc(Cl)c1

[1, 1, 0.96]

Okay, here is my list. What is relative solubility at 100 uM for each of these?
1. O=C1C(=O)N(Cc2ccccc2)c2cc(Br)ccc21
2. C=CC(=O)N(c1ccc(C(F)(F)F)cc1)C(C(=O)NCCc1cccc(F)c1)c1cncc(Cl)c1 (centres undefined)
3. C=CC(=O)N(c1ccc(C(C)C)nc1)C(C(=O)Nc1ccc(OC)cc1C)c1cccnc1 (centres undefined)
4. Cc1ccncc1NC(=O)Nc1cccc(C#N)c1
5. C=CC(=O)N(c1ccc(C(C)OC)cc1)C(C(=O)Nc1c(C)cccc1CC)c1cccnc1 (centres undefined)
6. O=C(Nc1cccnc1)Nc1cncc(Cl)c1

0.59
0.28
0.93
0.97
0.87
1

Okay, here is my list. What is relative solubility at 100 uM for each of these?
1. COc1ccccc1OC1CCCN(C(=O)c2cc(=O)[nH]c3ccc(Cl)cc23)C1 (centres undefined)
2. O=C(Cc1cncnc1)Nc1cc(F)cc(OC2CC(=O)N2)c1 (centres undefined)
3. C=CC(=O)N(c1ccc(C(C)(C)C)cc1)C(C(=O)Nc1cccc(F)c1C)c1cccnc1 (centres undefined)
4. C=CC(=O)N(c1ccc(C2(C)CC2)cc1)C(C(=O)Nc1ccc(Br)cc1)c1cccnc1 (centres undefined)
5. C=CC(=O)N(c1ccc(C(F)(F)F)cc1)C(C(=O)NCCc1cccc(F)c1)c1cncc(C#N)c1 (centres undefined)
6. C=CC(=O)N(c1ccc(C(C)OC)cc1)C(C(=O)Nc1ccc(Cl)cc1)c1cccnc1 (centres undefined)
7. O=C(CCl)N1CCN(Cc2cccc(Cl)c2)C[C@@H]1Cc1ccccc1 (stereo in doubt)

[0.93, 0.99, 0.98, 1.01, 0.99, 0.76, 0.92]
